Let's look at some molecules and their measured Papp at 30 min, 50 μM.
test_method_notes: skin-PAMPA permeability assay (gradient-pH, UPLC-DAD)
measurement_context: PAMPA, log Pe, without stirring, 30 min incubation; neutral form (donor pH 3.0, aminopyrine pH 7.0), acceptor pH 7.4, 32 °C

>  <molecule>
CC(C)Cc1ccc(C(C)C(=O)O)cc1 (stereo not shown) [Ibuprofen]

>  <unit>
×10⁻⁶ cm/s

>  <Papp at 30 min, 50 μM>
257

$$$$
>  <molecule>
COC1=CC(=O)C[C@@H](C)[C@]12Oc1c(Cl)c(OC)cc(OC)c1C2=O [Griseofulvin]

>  <unit>
×10⁻⁶ cm/s

>  <Papp at 30 min, 50 μM>
2.24

$$$$
>  <molecule>
CC(C(=O)O)c1ccc(-c2ccccc2)c(F)c1 (stereo not shown) [Flurbiprofen]

>  <unit>
×10⁻⁶ cm/s

>  <Papp at 30 min, 50 μM>
288

$$$$
>  <molecule>
CC(=O)[C@H]1CC[C@H]2[C@@H]3CCC4=CC(=O)CC[C@]4(C)[C@H]3CC[C@]12C [Progesterone]

>  <unit>
×10⁻⁶ cm/s

>  <Papp at 30 min, 50 μM>
15.5

$$$$

* * *

RM (membrane retention) listing for selected molecules.
test_method_notes: skin-PAMPA permeability assay (gradient-pH, UPLC-DAD)
measurement_context: mole fraction; with stirring, 30 min incubation; neutral form

>  <molecule>
O=c1[nH]cc(F)c(=O)[nH]1

>  <RM (membrane retention)>
0.00

$$$$
>  <molecule>
C[C@H]1O[C@@H](O[C@H]2[C@@H](O)C[C@H](O[C@H]3[C@@H](O)C[C@H](O[C@H]4CC[C@@]5(C)[C@H](CC[C@@H]6[C@@H]5CC[C@]5(C)[C@@H](C7=CC(=O)OC7)CC[C@]65O)C4)O[C@@H]3C)O[C@@H]2C)C[C@H](O)[C@@H]1O

>  <RM (membrane retention)>
0.00

$$$$
>  <molecule>
CC(C(=O)O)c1ccc(-c2ccccc2)c(F)c1 (stereo not drawn)

>  <RM (membrane retention)>
0.18(±0.03)

$$$$
>  <molecule>
CC(C)Cc1ccc(C(C)C(=O)O)cc1 (stereo not drawn)

>  <RM (membrane retention)>
0.22(±0.03)

$$$$
>  <molecule>
CC(=O)[C@H]1CC[C@H]2[C@@H]3CCC4=CC(=O)CC[C@]4(C)[C@H]3CC[C@]12C

>  <RM (membrane retention)>
0.50(±0.04)

$$$$
>  <molecule>
COC1=CC(=O)C[C@@H](C)[C@]12Oc1c(Cl)c(OC)cc(OC)c1C2=O

>  <RM (membrane retention)>
0.06(±0.01)

$$$$

* * *

test_method_notes: in vitro
measurement_context: PAMPA, pH 7.4, log Pe, optimized assay conditions (4 h incubation, stirring); measured at the pH corresponding to the neutral form; acceptor pH 7.4
Parameter Papp: see the listing below.

>  <line_notation>
Cc1cccc(O)c1

>  <Papp [×10⁻⁶ cm/s]>
46.8

$$$$
>  <line_notation>
O=[N+]([O-])c1ccc(O)cc1

>  <Papp [×10⁻⁶ cm/s]>
12.3

$$$$

* * *

test_method_notes: skin-PAMPA permeability assay (gradient-pH, UPLC-DAD)
measurement_context: PAMPA, log Pe, without stirring, 4 h incubation; neutral form (donor pH 3.0, aminopyrine pH 7.0), acceptor pH 7.4, 32 °C

>  <compound>
CC(=O)[C@H]1CC[C@H]2[C@@H]3CCC4=CC(=O)CC[C@]4(C)[C@H]3CC[C@]12C

>  <Papp at 4 h, 50 μM (×10⁻⁶ cm/s)>
13.2

$$$$
>  <compound>
CC(C)Cc1ccc(C(C)C(=O)O)cc1 (centres unmarked)

>  <Papp at 4 h, 50 μM (×10⁻⁶ cm/s)>
224

$$$$
>  <compound>
O=c1[nH]cc(F)c(=O)[nH]1

>  <Papp at 4 h, 50 μM (×10⁻⁶ cm/s)>
0.339

$$$$
>  <compound>
COC1=CC(=O)C[C@@H](C)[C@]12Oc1c(Cl)c(OC)cc(OC)c1C2=O

>  <Papp at 4 h, 50 μM (×10⁻⁶ cm/s)>
4.68

$$$$
>  <compound>
CC(C(=O)O)c1ccc(-c2ccccc2)c(F)c1 (centres unmarked)

>  <Papp at 4 h, 50 μM (×10⁻⁶ cm/s)>
141

$$$$

// data source = paper PMC8915600
